Examples of compounds with documented inhibition follow.
experiment: inhibitors of TNFa-induced NFkB p65 translocation, primary screen, imaging, HUVEC, MLSMR starter and 10KST1 sets (AID 438); details: HUVEC TNFa-induced p65 nuclear translocation; at 2 µM, hits give high values, 0% TNFa-plus-vehicle, 100% no-TNFa wells;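 note: compound added about 3h40 before a 20 min TNFalpha stimulation; signal is the nuclear over cytoplasmic p65 intensity ratio per well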
observed.property: inhibition (%)

> print(dat)
                                    compound  experimental.result
 1                     CCCc1ccccc1OCCNC(C)=O                  9.6
 2  COC(=O)C(C#N)C(=C1C(=O)CC(C)(C)CC1=O)c1ccc(O)cc1 (stereo not given)                  1.2
 3  CC(C)CCSc1nc2c(c(=O)[nH]c(=O)n2C)n1CCCc1ccccc1                 -5.9
 4      O=C(CSc1nnnn1-c1ccccc1)Nc1ccc(Cl)cc1                 -0.2
 5  CCOC(=O)c1ccccc1NC(=O)c1c(O)c2ccccc2n(CC)c1=O                -12.8
 6                      Cc1cc(/N=C/N(C)C)on1                  1.5
 7          O=C(CSc1nnc2sc3ccccc3n12)c1ccco1                  1.9
 8             O=C(Nc1cccnc1N1CCOCC1)c1ccco1                 -0.3
 9  CCN(Cc1cc2cc(OC)ccc2[nH]c1=O)C(=O)Cc1ccc(OC)cc1                  1.8
10    O=C(c1nn2cccnc2c1Cl)N1CCN(c2ccccc2)CC1                  3.6
11               O=C(Nc1ccncc1)c1cc2ccccc2o1                  2.1
12  O=c1cc(CSc2nnc(COc3ccc(Cl)cc3)o2)c2ccccc2[nH]1                 -6.2
13           O=c1c2cc3ccccc3n2cnn1Cc1ccccc1F                 -8.5
14          O=C(Nc1ccc2oc(=O)ccc2c1)c1cccnc1                  7.5
15  CC1Cc2nc(SCC(N)=O)n(Cc3ccccc3)c(=O)c2S1 (stereo not given)                  -14

###

target: Alpha-2C adrenergic receptor (Homo sapiens) (UniProt P18825); test: compounds altering alpha2C-coupled GIRK flux – cell-based, HEK293 alpha2C/GIRK1/2, thallium flux, primary screen (AID 624); settings: thallium flux BTC fluorescence, at 10 µM, actives lie on both sides;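 note: slope of fluorescence ratio to pre-addition baseline per second over 15 to 24 s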
Sequence (P18825 whole entry, looked up): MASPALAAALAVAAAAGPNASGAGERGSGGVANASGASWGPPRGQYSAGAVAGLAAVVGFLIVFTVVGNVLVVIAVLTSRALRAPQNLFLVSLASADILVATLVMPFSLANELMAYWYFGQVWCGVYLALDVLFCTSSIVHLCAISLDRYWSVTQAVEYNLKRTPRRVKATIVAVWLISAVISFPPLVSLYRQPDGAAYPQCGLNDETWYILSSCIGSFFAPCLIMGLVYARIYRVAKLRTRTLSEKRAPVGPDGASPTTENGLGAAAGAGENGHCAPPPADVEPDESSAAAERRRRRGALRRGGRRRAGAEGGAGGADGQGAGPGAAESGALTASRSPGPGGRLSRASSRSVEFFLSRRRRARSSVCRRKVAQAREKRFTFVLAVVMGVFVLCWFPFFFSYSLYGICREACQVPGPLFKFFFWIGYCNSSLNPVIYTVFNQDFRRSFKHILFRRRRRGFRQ
Examples of compounds with documented slope follow.
observed.property: slope

> print(dat)
                                   compound  experimental.result
1  CCc1ccc2[nH]c(=O)c(C(c3nnnn3CC3CCCO3)N3CCN4CCCC4C3)cc2c1 (stereo unspecified)              0.00534
2  COCCN(CCOC)C(=O)c1sc2nc(-c3ccccc3)cn2c1C              0.00336
3  O=C(CSc1nc2ccccc2o1)N1CCN(C(=O)c2ccco2)CC1              0.00634
4  O=C(c1ccco1)N1CCN(S(=O)(=O)c2ccc(C3CCCCC3)cc2)CC1              0.00443
5        CCn1nnnc1SCC(=O)Nc1nc(-c2cccs2)cs1              0.00497
6                  CCCCOCCCNC(=O)COc1ccccc1              0.00485
